src = patent US9156801B2

- System: Kasumi-1 cell line
- assay comment: leukemia cell growth inhibition, MTT
- Assay type: cell-based
- study conditions: Homo sapiens; Kasumi-1, 16 μg/mL compound, 72 h; read-out: IR (cell proliferation inhibition rate)
Listed here are molecules together with their documented inhibition at 16 µg/mL.
Lab book: enter the figure in %, no units written.

Solved cases below.
| molecule | inhibition at 16 µg/mL, % |
| --- | --- |
| COC(=O)[C@]12CCC(C)(C)CC1C1=CCC3[C@@]4(C)CC(C(=O)NCCCN5CCCC5)C(=O)C(C)(C)C4CC[C@@]3(C)[C@]1(C)CC2 (stereo partly drawn) | 99.1 |
| CN1CCN(CCCNC(=O)C2C[C@]3(C)[C@H]4CC=C5[C@@H]6CC(C)(C)CC[C@]6(C(=O)O)CC[C@@]5(C)[C@]4(C)CC[C@H]3C(C)(C)C2=O)CC1 (stereo partly drawn) | 41.7 |

From here, focus on the item given below.
Prompt: Give the measured inhibition at 16 µg/mL of CCN(CC)CCCNC(=O)C1C[C@]2(C)[C@H]3CC=C4[C@@H]5CC(C)(C)CC[C@]5(C(=O)OC)CC[C@@]4(C)[C@]3(C)CC[C@H]2C(C)(C)C1=O (stereo partly drawn) .
Response: 97

* * *

- Test system: Kasumi-1 cell line
- assay comment: leukemia cell growth inhibition, MTT
- Format: cell-based
- study conditions: Homo sapiens; Kasumi-1, 16 μg/mL compound, 72 h; read-out: IR (cell proliferation inhibition rate)
- Text: Leukemia cell lines: leukemia cell lines: K562/adr (drug-resistant, chronic myeloid leukemia, CML), NB4 (acute promyelocytic leukemia, AML), Kasumi-1 (acute myeloid leukemia M2 type, AML-M2), Jurkat (acute lymphoblastic leukemia, ALL), all of which are donated by Cancer Research Institute of Zhejiang University, China; and H9 (acute lymphoblastic leukemia, ALL), which is purchased from China Center for Type Culture Collection (CCTCC). […]
Classification field: enter rule met for inhibition at 16 µg/mL values not below 40%, rule not met for values below it.

Solved cases (10 shown):
| compound | subject of test | assigned class |
| --- | --- | --- |
| COC(=O)[C@]12CCC(C)(C)CC1C1=CCC3[C@@]4(C)CC(C(=O)NC5CC5)C(=O)C(C)(C)C4CC[C@@]3(C)[C@]1(C)CC2 (some centres unmarked) | Kasumi-1 cell line | rule not met |
| COC(=O)[C@]12CCC(C)(C)C[C@H]1C1=CC[C@@H]3[C@@]4(C)CC(C(=O)NCCN5CCOCC5)C(=O)C(C)(C)[C@@H]4CC[C@@]3(C)[C@]1(C)CC2 (some centres unmarked) | Kasumi-1 cell line | rule met |
| COC(=O)[C@]12CCC(C)(C)CC1C1=CCC3[C@@]4(C)CC(C(=O)NCCCN5CCN(C)CC5)C(=O)C(C)(C)C4CC[C@@]3(C)[C@]1(C)CC2 (some centres unmarked) | Kasumi-1 cell line | rule met |
| COC(=O)[C@]12CCC(C)(C)CC1C1=CCC3[C@@]4(C)CC(C(=O)NCCc5cccnc5)C(=O)C(C)(C)C4CC[C@@]3(C)[C@]1(C)CC2 (some centres unmarked) | Kasumi-1 cell line | rule met |
| CC1(C)CC[C@]2(C(=O)O)CC[C@]3(C)C(=CC[C@@H]4[C@@]5(C)CC(C(=O)NCCN6CCCC6)C(=O)C(C)(C)[C@@H]5CC[C@]43C)[C@@H]2C1 (some centres unmarked) | Kasumi-1 cell line | rule not met |
| CCN(CC)CCNC(=O)C1C[C@@]2(C)C(CC[C@]3(C)C2CC=C2C4CC(C)(C)CC[C@]4(C(=O)O)CC[C@]23C)C(C)(C)C1=O (some centres unmarked) | Kasumi-1 cell line | rule met |
| COCCCNC(=O)C1C[C@]2(C)[C@H]3CC=C4[C@@H]5CC(C)(C)CC[C@]5(C(=O)OC)CC[C@@]4(C)[C@]3(C)CC[C@H]2C(C)(C)C1=O (some centres unmarked) | Kasumi-1 cell line | rule not met |
| COC(=O)[C@]12CCC(C)(C)C[C@H]1C1=CC[C@@H]3[C@@]4(C)CC(C(=O)NCC5CC5)C(=O)C(C)(C)[C@@H]4CC[C@@]3(C)[C@]1(C)CC2 (some centres unmarked) | Kasumi-1 cell line | rule not met |
| COC(=O)[C@]12CCC(C)(C)CC1C1=CCC3[C@@]4(C)CC(C(=O)NCCN5CCCC5)C(=O)C(C)(C)C4CC[C@@]3(C)[C@]1(C)CC2 (some centres unmarked) | Kasumi-1 cell line | rule met |
| COC(=O)[C@]12CCC(C)(C)CC1C1=CCC3[C@@]4(C)CC(C(=O)NCCC(C)C)C(=O)C(C)(C)C4CC[C@@]3(C)[C@]1(C)CC2 (some centres unmarked) | Kasumi-1 cell line | rule not met |

Now examine the next entry.
Prompt: hey, is inhibition at 16 µg/mL for this one >= 40%? CCN(CC)CCCNC(=O)C1C[C@@]2(C)C(CC[C@]3(C)C2CC=C2C4CC(C)(C)CC[C@]4(C(=O)O)CC[C@]23C)C(C)(C)C1=O (some centres unmarked)
Response: rule met
